FYI, the data here is from ChEMBL document CHEMBL1134879.

Target: 4-hydroxyphenylpyruvate dioxygenase (Sus scrofa, UniProt Q02110)
Sequence (Q02110 whole entry): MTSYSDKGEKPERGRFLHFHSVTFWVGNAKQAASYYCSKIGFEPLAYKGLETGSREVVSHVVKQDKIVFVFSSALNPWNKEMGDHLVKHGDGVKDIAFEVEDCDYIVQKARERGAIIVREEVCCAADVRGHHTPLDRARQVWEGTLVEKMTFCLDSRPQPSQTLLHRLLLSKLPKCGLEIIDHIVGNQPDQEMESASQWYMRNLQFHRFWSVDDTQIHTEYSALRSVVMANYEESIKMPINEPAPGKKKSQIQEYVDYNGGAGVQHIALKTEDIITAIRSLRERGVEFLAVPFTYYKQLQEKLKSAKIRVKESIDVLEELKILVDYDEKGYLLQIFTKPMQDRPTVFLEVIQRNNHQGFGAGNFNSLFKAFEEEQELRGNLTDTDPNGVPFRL
Assay: Concentration required to achieve 50% inhibition against 4-Hydroxyphenylpyruvate dioxygenase (HPPD) from pig liver; (observed value)
Note: every record was labeled by where its IC50 sits among bottom range: < 100 nM; center range: ≥ 100 nM and < 600 nM; top range: ≥ 600 nM

{"molecule": "CCOC(=O)C1CC(=O)C(C(=O)C2CC2)=C(OC(=O)C2CC2)C1 (stereo unspecified)", "label": "bottom range"}
{"molecule": "COC1=CC(=O)C(OC(=O)C2CC2)=CC1=O", "label": "top range"}
{"molecule": "CCOC(=O)C1CC(=O)C=C(OC(=O)C2CC2)C1 (stereo unspecified)", "label": "bottom range"}
{"molecule": "O=C1C=C(OC(=O)C2CC2)CC1", "label": "bottom range"}
{"molecule": "O=C(Oc1cc(=O)oc2ccccc12)C1CC1", "label": "center range"}
{"molecule": "O=C1CCCC(=O)C1=C(O)c1ccccc1Br", "label": "center range"}
{"molecule": "O=C1CCCC(=O)C1=C(O)c1ccccc1I", "label": "top range"}
{"molecule": "O=C1CCCC(=O)C1=C(O)c1ccccc1C(F)(F)F", "label": "center range"}
{"molecule": "Cc1ccccc1C(O)=C1C(=O)CCCC1=O", "label": "top range"}
{"molecule": "O=C(Oc1cccc(O)c1)C1CC1", "label": "center range"}
{"molecule": "O=C1CCCC(OC(=O)C2CC2)=C1Cl", "label": "bottom range"}
{"molecule": "COc1ccccc1C(O)=C1C(=O)CCCC1=O", "label": "top range"}
{"molecule": "O=C1CCCC(OC(=O)C2CC2)=C1Br", "label": "bottom range"}
{"molecule": "O=C1CCCC(=O)C1=C(O)c1ccccc1Cl", "label": "center range"}
{"molecule": "O=C1CCCC(=O)C1=C(O)c1ccccc1", "label": "top range"}
{"molecule": "CC1(C)CC(=O)C=C(OC(=O)C2CC2)C1", "label": "center range"}
